# MEASUREMENT_DESCRIPTION: Rat pharmacokinetics (plasma, LC-MS/MS, non-compartmental analysis)
# Type: in vivo
# MEASUREMENT_SETUP: male, CD IGS, plasma, PO, 100 mg/kg, mean
TEST_READOUT: half-life (h)
Answer in h, number only, no unit symbol.

Requested field: half-life. Item: O=C([O-])c1ccc(Nc2cc(N3CCN(C4CCCCC4)CC3)c3noc4c3c2C(=O)c2ccccc2-4)cc1.[Na+] [Compound I]
2.07

----------
# MEASUREMENT_DESCRIPTION: Rat pharmacokinetics (plasma, LC-MS/MS, non-compartmental analysis)
# Type: in vivo
# MEASUREMENT_SETUP: male, CD IGS, plasma, PO, 100 mg/kg, mean
# Experimental: Compound I was dosed to nonfasted male CD IGS rats (weighting 180-250 g, Charles River Laboratories) by single intravenous (IV, n=3/group) or oral gavage (PO, n=4/group, including control rat group for drug-free blood and brain collection) administration at a nominal dose levels of 3 mg/kg (IV) or 5 mg/kg (IV) and 10, 50, 100 mg/kg (PO) respectively. […] Plasma and brain samples were subjected to quantitative analysis by LC-MS/MS using compound-specific mass transitions. […]
TEST_READOUT: Cmax (µg/mL)
Numbers only here, please. The scale is µg/mL.

State the recorded Cmax for this entry: "O=C([O-])c1ccc(Nc2cc(N3CCN(C4CCCCC4)CC3)c3noc4c3c2C(=O)c2ccccc2-4)cc1.[Na+]"
66

----------
# MEASUREMENT_DESCRIPTION: Rat brain and plasma concentration after IV dosing
# Assay type: in vivo
# MEASUREMENT_SETUP: male, CD IGS, brain/plasma, dose 3 and 5 mg/kg, 60 min, read-out: Ratio Brain/Plasma
TEST_READOUT: Kp at 60 min
Could you respond with only the numeric value?

Any idea what its Kp at 60 min is? The compound is "O=C([O-])c1ccc(Nc2cc(N3CCN(C4CCCCC4)CC3)c3noc4c3c2C(=O)c2ccccc2-4)cc1.[Na+]"
0.018

----------
# MEASUREMENT_DESCRIPTION: Rat pharmacokinetics (plasma, LC-MS/MS, non-compartmental analysis)
# Assay type: in vivo
# MEASUREMENT_SETUP: male, CD IGS, plasma, IV, 3 mg/kg, mean
# Protocol: Compound I was dosed to nonfasted male CD IGS rats (weighting 180-250 g, Charles River Laboratories) by single intravenous (IV, n=3/group) or oral gavage (PO, n=4/group, including control rat group for drug-free blood and brain collection) administration at a nominal dose levels of 3 mg/kg (IV) or 5 mg/kg (IV) and 10, 50, 100 mg/kg (PO) respectively. […] Plasma and brain samples were subjected to quantitative analysis by LC-MS/MS using compound-specific mass transitions. […]
TEST_READOUT: clearance (mL/min/kg)
Write the number in mL/min/kg without appending the unit.

Query: clearance; subject: O=C([O-])c1ccc(Nc2cc(N3CCN(C4CCCCC4)CC3)c3noc4c3c2C(=O)c2ccccc2-4)cc1.[Na+] [Compound I]
4

----------
# MEASUREMENT_DESCRIPTION: Rat brain and plasma concentration after IV dosing
# Type: in vivo
# MEASUREMENT_SETUP: male, CD IGS, brain, dose 3 and 5 mg/kg, 60 min, read-out: Brain concentration
TEST_READOUT: concentration at 60 min (ng/g)
Give just the number in ng/g; leave the unit off.

Dear colleague, I am looking for the recorded concentration at 60 min of the following compound: "O=C([O-])c1ccc(Nc2cc(N3CCN(C4CCCCC4)CC3)c3noc4c3c2C(=O)c2ccccc2-4)cc1.[Na+]"
120
